This listing pairs compounds with measured residual activity.
- tgt: ROCK1 (human) (UniProt Q13464)
- Sequence (Q13464 whole entry, looked up): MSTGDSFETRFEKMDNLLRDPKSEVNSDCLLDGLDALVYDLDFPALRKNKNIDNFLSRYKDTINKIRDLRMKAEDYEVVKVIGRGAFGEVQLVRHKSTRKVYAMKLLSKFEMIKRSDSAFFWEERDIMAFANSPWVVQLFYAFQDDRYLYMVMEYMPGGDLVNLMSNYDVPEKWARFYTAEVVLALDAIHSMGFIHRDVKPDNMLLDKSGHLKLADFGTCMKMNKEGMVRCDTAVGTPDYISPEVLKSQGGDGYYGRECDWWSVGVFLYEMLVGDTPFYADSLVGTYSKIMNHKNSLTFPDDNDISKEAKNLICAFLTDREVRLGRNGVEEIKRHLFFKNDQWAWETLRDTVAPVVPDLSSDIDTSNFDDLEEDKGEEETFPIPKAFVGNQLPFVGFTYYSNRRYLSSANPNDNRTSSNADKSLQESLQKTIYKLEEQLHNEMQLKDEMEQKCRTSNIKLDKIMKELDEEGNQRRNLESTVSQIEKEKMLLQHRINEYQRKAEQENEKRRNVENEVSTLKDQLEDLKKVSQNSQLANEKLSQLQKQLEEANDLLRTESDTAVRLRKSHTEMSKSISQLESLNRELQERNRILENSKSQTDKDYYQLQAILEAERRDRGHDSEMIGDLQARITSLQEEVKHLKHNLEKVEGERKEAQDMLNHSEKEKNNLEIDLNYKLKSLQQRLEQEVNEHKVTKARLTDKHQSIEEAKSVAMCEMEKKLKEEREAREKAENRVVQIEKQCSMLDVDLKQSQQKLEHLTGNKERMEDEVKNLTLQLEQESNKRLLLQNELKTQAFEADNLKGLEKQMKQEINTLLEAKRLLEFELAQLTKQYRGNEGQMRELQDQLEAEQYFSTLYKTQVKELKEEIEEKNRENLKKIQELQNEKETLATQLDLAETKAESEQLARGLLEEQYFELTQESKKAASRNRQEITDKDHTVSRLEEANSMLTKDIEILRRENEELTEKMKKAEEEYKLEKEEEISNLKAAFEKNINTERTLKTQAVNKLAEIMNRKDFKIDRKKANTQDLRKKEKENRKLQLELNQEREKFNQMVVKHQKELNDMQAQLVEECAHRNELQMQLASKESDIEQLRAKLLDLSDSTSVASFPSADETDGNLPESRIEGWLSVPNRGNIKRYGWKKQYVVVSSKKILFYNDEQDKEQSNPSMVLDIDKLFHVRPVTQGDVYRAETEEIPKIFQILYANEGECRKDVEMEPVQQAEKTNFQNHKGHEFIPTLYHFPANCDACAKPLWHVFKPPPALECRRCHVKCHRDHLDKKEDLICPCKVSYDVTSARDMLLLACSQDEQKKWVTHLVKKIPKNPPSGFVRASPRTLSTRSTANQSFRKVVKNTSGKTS
- test: radiometric filter-binding kinase assay, Kinase HotSpot
- conditionDetails: compound 0.5 µM; ATP 10 µM

{"columns": ["smilesCode", "residual activity (%)"],
 "data": [
  ["Cn1c2ccccc2c2c3c(c4c5ccccc5n(CCC#N)c4c21)CNC3=O", 61.9],
  ["O=C(c1cc2cc(O)ccc2[nH]1)c1cc2cc(O)ccc2[nH]1", 96.2],
  ["Cc1cncc2cccc(S(=O)(=O)N3CCCN(C(=O)CN)C[C@H]3C)c12", 3.44],
  ["O=C1C(Cl)=C(N2C(=O)CCC2=O)C(=O)c2ccccc21", 106],
  ["Cc1cccc(-c2nc(C(C)(C)C)[nH]c2-c2ccc3c(c2)OCO3)n1", 101],
  ["COc1ccc2c(c1)/C(=C/c1cnc[nH]1)C(O)=N2", 96],
  ["N#Cc1c[nH]c2c[nH]/c(=N\\Cc3cccnc3)cc2/c1=N\\c1ccc(F)c(Cl)c1", 99.8],
  ["Fc1ccc(-c2nc3n(c2-c2ccncc2)CCS3)cc1", 103],
  ["O=C1c2ccccc2-c2nc3nnnn3nc21", 94.5],
  ["c1ccc2c(-c3ccncc3)c[nH]c2c1", 84.2],
  ["COc1cc(Nc2c(C#N)cnc3cc(OCCCN4CCN(C)CC4)c(OC)cc23)c(Cl)cc1Cl", 105],
  ["O=C1NC(=O)c2c1c1c3ccccc3[nH]c1n1cncc21", 95.9],
  ["Cc1nc(-c2ccccc2)c(-c2ccncc2)o1", 99.8],
  ["COc1ccc(C(=O)Nc2sc3c(c2C(N)=O)CCCC3)cc1OC", 107],
  ["COc1ccc(S(=O)(=O)N(CCO)c2ccccc2CN(C)C/C=C/c2ccc(Cl)cc2)cc1", 99.7],
  ["COc1ccc2c(c1)c(C1=C(c3c[nH]c4ccccc34)C(=O)NC1=O)cn2CCCN(C)C", 93.5],
  ["Ic1cccc(CSc2nnc(-c3ccncc3)o2)c1", 88],
  ["CN(C)c1ccc(/C=C2\\C(=O)Nc3ccccc32)cc1", 98.3],
  ["CO[C@@H]1[C@H](N(C)C(=O)c2ccccc2)C[C@H]2O[C@]1(C)n1c3ccccc3c3c4c(c5c6ccccc6n2c5c31)C(=O)NC4", 85.3],
  ["COc1ccc(Cl)cc1NC(=O)Nc1cc(C)nc2ccccc12", 100],
  ["COc1cc2ncnc(Nc3ccc(Oc4ccccc4)cc3)c2cc1OC", 102],
  ["NC(=O)c1cccc(-c2cc(Nc3ccc(OC(F)(F)F)cc3)ncn2)c1", 96.8],
  ["CC(C)(C)c1cc(C=C(C#N)C#N)cc(Br)c1O", 82.9],
  ["CS(=O)(=O)CCNCc1ccc(-c2ccc3ncnc(Nc4ccc(OCc5cccc(F)c5)c(Cl)c4)c3c2)o1", 108],
  ["N#C/C(=C\\c1ccc(O)c(O)c1)C(=O)NCc1ccccc1", 99.7],
  ["C[C@@H]1CCN(C(=O)CC#N)C[C@@H]1N(C)c1ncnc2[nH]ccc12", 90.1],
  ["CCCCc1c(-c2ccc(OC)cc2)[nH]c2nccnc12", 99.9],
  ["CN(C)S(=O)(=O)c1ccc2c(c1)/C(=C/c1cc3c([nH]1)CCCC3)C(=O)N2", 95.2],
  ["CN(C)CCCn1cc(C2=C(c3c[nH]c4ccccc34)C(=O)NC2=O)c2ccccc21", 92.3],
  ["COc1cc2ncnc(Nc3ccc(OCc4ccccc4)cc3)c2cc1OC", 96.6],
  ["O=C1Nc2ccc(Br)cc2/C1=C\\c1cc2c([nH]1)CCCC2", 98.8]
]}

Hello, the source for this data is the kinase profiling compilation of Christmann-Franck et al. (2016), in case you need it.
